protocol conditions: 298.15 K; 100 kPa; Liquid; Concentric cylinders viscometry
Numbers after ± are expanded uncertainties.
Examples of compounds with documented viscosity follow.
Report the figure along with its unit, number first.

>>> assay_value("CCCCCCCCCCO")
"11.8 ± 0.59 mPa·s"
>>> assay_value("CCCCCCCCCO")
"9.43 ± 0.47 mPa·s"

What does the data say about its viscosity? Entry: `CCCCCCO`
4.58 ± 0.23 mPa·s

Please do the same for `CCCCCCCCO` as well.
7.62 ± 0.38 mPa·s

Please do the same for `CCCCCCCO` as well.
5.92 ± 0.3 mPa·s

Please do the same for CCCCOC(C)=O [butyl ethanoate] as well.
0.677 ± 0.034 mPa·s

###

Examples of molecules with documented viscosity follow.
protocol conditions: 308.15 K; 100 kPa; Liquid; Concentric cylinders viscometry
Report the figure in mPa·s without appending any unit label.

The examples below pair each entry with its known result.
>>> assay_value("CCCCCCO [hexan-1-ol]")
3.4
>>> assay_value("CCCCCCCCCO [nonan-1-ol]")
6.61
>>> assay_value("CCCCCCCCO [octan-1-ol]")
5.43
>>> assay_value("CCCCCCCCCCO [decan-1-ol]")
8.14
>>> assay_value("CCCCOC(C)=O [butyl ethanoate]")
0.585

What does the data say about its viscosity? Entry: CCCCCCCO [heptan-1-ol]
4.3

###

protocol conditions: 298.15 K; 100 kPa; Liquid; Vibrating tube method
experimental readout: mass density (kg/m3)
Report the figure in kg/m3 without appending any unit label.

>>> assay_value("CCCCCCCCCO")
824
>>> assay_value("CCCCCCCCCCO")
826.1

Here's the next entry for you.
What does the data say about its mass density? Entry: `CCCCCCO`
815.1

// provenance: the NIST ThermoML archive (doi:10.1021/acs.jced.8b00524)
